I'd be grateful if you could share measured pIC50 for these entries.
assay-target: Stat3 (Mus musculus, UniProt P42227)
Sequence (P42227 2-770): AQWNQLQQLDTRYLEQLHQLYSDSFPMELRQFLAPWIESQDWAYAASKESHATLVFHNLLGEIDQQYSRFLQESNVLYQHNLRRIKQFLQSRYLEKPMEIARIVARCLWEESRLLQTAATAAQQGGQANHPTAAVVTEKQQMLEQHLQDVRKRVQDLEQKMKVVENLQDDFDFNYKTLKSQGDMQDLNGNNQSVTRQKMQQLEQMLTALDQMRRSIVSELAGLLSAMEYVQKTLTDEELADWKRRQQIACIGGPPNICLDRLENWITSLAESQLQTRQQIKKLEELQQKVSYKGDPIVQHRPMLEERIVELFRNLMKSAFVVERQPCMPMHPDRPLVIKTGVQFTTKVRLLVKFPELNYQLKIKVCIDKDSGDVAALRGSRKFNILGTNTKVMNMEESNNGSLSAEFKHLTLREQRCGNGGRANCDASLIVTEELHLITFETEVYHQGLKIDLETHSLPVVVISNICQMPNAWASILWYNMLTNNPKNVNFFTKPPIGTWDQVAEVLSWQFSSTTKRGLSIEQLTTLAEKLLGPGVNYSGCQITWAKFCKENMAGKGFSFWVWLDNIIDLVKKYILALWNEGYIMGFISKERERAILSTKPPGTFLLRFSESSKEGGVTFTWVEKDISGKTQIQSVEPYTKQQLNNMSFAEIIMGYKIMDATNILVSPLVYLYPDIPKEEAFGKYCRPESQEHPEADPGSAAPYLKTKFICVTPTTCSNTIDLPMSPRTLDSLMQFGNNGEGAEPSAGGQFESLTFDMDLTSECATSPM
protocol-summary: Stat3 DNA-binding activity in vitro, electrophoretic mobility shift assay (EMSA) on nuclear extracts
Assay type: biochemical
measurement-context: nuclear extracts containing activated Stat3 pre-incubated with compound 30 min at room temperature, radiolabeled hSIE probe
When answering, recall that pIC50 equals minus log10 of the concentration in mol/L, and write that number alone.

Asked: Fill in: pIC50 of Cn1ccc2cc(N(Cc3ccc(C4CCCCC4)cn3)C(=O)[C@H]3CCN3S(=O)(=O)c3c(F)c(F)c(F)c(F)c3F)ccc2c1=O is ___
Given back: 6.06

Asked: Fill in: pIC50 of O=C([C@H]1CCN1S(=O)(=O)c1c(F)c(F)c(F)c(F)c1F)N(Cc1ccc(C2CCCCC2)cn1)c1ccc2c(=O)[nH]ccc2c1 is ___
Given back: 6.10

Asked: Fill in: pIC50 of Cn1cnc2cc(N(Cc3ccc(C4CCCCC4)cn3)C(=O)[C@H]3CCN3S(=O)(=O)c3c(F)c(F)c(F)c(F)c3F)ccc2c1=O is ___
Given back: 5.94

---

System: MDA-MB-231
protocol-summary: Cell growth by trypan blue exclusion/phase-contrast microscopy
Type: cell-based
measurement-context: Homo sapiens, MDA-MB-231, read-out: IC50, MDA-MB-231 cell growth
Experimental: FIGS. 1A-1N. Show the effects of aryl sulfonamido azetidine compounds on cell viability in vitro relative to control (untreated cells). […] Cell proliferation and viability assay. […] Cells in 6-well or 96-well plates were treated with or without compounds for the indicated concentrations and time, and subjected to MTT assay or CyQuant cell proliferation assay (Invitrogen/ThermoFisher Scientific), or harvested and the viable cells were counted by trypan blue exclusion with phase-contrast microscopy. […]
pIC50: −log10 of the molar value.
parameter: pIC50

Asked: Fill in: pIC50 of O=C([C@H]1CCN1S(=O)(=O)c1c(F)c(F)c(F)c(F)c1F)N(Cc1ccc(C2CCCCC2)cn1)c1ccc2c(=O)[nH]cnc2c1 [Example H182] is ___
Given back: > 5.00
